# measured-on: TARP γ8 dependent AMPA receptor (GRIA1o-CACNG8 fusion construct) (Homo sapiens (Human), UniProt P42261+Q8WXS5)
# Sequence (P42261 other isoform, or with tags, fused parts or gaps): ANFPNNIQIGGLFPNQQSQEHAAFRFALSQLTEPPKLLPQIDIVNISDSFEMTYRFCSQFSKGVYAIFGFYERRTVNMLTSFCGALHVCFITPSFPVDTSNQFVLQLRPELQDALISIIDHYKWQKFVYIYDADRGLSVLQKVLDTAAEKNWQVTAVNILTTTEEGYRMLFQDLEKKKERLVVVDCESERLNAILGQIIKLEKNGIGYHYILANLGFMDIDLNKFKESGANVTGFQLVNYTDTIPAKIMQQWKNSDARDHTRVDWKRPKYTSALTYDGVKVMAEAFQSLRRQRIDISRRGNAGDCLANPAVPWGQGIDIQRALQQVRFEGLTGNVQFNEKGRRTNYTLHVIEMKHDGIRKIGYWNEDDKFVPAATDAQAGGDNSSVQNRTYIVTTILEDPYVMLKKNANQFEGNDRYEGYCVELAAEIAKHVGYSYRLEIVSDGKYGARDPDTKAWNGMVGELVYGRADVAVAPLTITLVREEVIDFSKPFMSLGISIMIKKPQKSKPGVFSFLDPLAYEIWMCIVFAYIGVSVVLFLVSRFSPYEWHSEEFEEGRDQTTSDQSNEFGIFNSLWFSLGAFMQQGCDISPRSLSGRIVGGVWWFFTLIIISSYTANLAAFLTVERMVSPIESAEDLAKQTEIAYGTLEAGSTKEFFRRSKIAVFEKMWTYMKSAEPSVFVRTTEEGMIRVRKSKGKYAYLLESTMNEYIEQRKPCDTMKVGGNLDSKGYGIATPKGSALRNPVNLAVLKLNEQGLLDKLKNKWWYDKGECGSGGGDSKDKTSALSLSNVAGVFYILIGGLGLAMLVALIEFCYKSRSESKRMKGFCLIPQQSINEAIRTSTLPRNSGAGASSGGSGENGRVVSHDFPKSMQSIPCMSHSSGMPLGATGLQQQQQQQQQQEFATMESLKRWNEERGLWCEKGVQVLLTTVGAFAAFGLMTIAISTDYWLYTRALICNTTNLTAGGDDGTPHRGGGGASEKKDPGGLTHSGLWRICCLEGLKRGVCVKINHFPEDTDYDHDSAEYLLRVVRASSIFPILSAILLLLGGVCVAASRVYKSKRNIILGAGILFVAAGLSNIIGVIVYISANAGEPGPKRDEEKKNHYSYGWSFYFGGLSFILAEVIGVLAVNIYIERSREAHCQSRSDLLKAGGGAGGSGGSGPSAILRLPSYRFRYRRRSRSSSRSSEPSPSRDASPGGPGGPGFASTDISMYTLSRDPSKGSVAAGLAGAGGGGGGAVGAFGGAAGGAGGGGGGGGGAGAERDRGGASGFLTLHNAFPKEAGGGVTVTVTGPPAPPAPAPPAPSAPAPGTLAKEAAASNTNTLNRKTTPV
# experiment-description: Calcium flux assay (FLIPR), inhibition of glutamate response of GluA1o-γ8 channel
# settings: HEK293 cells stably expressing GRIA1o-CACNG8 fusion; calcium flux after 15 μM glutamate; negative log of the IC50 in molar
# Description: This assay was used to test compounds for their ability to inhibit TARP γ8 dependent AMPA receptor activity. The AMPA receptor is a non-selective cation channel activated by glutamate. […] Cell expressing the GRIA1o-CACNG8 fusion construct were grown in a monolayer in 96- or 384-well microtiter plates. […] Calcium flux following the addition of 15 μM glutamate was monitored using a Molecular Devices FLIPR Tetra. […]
property-measured: IC50 (nM)

Known IC50 results, listed for orientation:
| chemical-string | numeric-readout |
| --- | --- |
| Cc1cc(-c2c(C(F)(F)F)ccc3nc(C(F)(F)F)nn23)cc2c1NC(=O)C2 | 0.501 |
| Cc1cc(-c2c(C(F)(F)F)cc(C)c3nc(C(F)F)nn23)cc2cn[nH]c12 | 0.398 |
| CCc1cc(C(F)F)c(-c2cc(Cl)c3[nH]ncc3c2)n2nc(C3CC3)nc12 | 0.158 |
| CCc1nc2ccc(C(F)(F)F)c(-c3cc(Cl)c4[nH]ncc4c3)n2n1 | 0.398 |
| Cc1cc(C(F)(F)F)c(-c2cc(Cl)c3c(c2)CC(=O)N3)n2nc(C3CC3)nc12 | 0.126 |
| CCc1nc2ccc(C(F)F)c(-c3cc(Cl)c4[nH]ncc4c3)n2n1 | 0.398 |

[I] CCCc1nc2c(C)cc(C(F)(F)F)c(-c3cc(C)c4[nH]ncc4c3)n2n1
[II] CCc1cc(C(F)(F)F)c(-c2cc(Cl)c3[nH]ncc3c2)n2nc(C(F)F)nc12
Field: lower recorded IC50 (choose I or II ) Choose, then provide that item's label.
II
(II: 0.398 nM, I: 1 nM)

[1] Cc1nc2ccc(C(F)(F)F)c(-c3cc(Cl)c4[nH]ncc4c3)n2n1
[2] CCc1nc2c(C)cc(C(F)(F)F)c(-c3cc(Cl)c4[nH]ncc4c3)n2n1
[3] O=C1Cc2cc(-c3c(C(F)(F)F)ccc4cc(C(F)(F)F)nn34)cc(Cl)c2N1
[4] CCCc1nc2c(C)cc(C(F)F)c(-c3cc(C)c4[nH]ncc4c3)n2n1
Hi! Can you put these in order of IC50, lowest number first? Rank the items, then write their labels in that order.
3, 2, 1, 4

[I] Cc1cc(-c2c(-c3cccnc3)ccc3nc(C(F)(F)F)nn23)cc2cn[nH]c12
[II] CCc1cc(-c2c(C(F)(F)F)cc(C)c3nc(C(F)(F)F)nn23)cc2c1NC(=O)C2
[III] CCc1nc2c(Cl)cc(C(F)(F)F)c(-c3cc(Cl)c4[nH]ncc4c3)n2n1
Highest IC50 first, then in falling order down to the smallest. Rank the items, then write their labels in that order.
I, III, II
(I: 0.794 nM, III: 0.398 nM, II: 0.158 nM)

[P] Cc1cc(C(F)F)c(-c2cc(Cl)c3c(c2)CC(=O)N3)n2nc(C(F)(F)F)nc12
[Q] Cc1cc(C(F)(F)F)c(-c2cc(Cl)c3[nH]ncc3c2)n2nc(C(F)F)nc12
Field: lower recorded IC50 (choose P or Q ) Choose, then provide that item's label.
Q
(Q: 0.126 nM, P: 0.794 nM)

These measurements were taken from patent US10087185B2.
